# Species: Rattus norvegicus
# Assay Procedure: Open TG-GATES - Regimen: Single
# Type: toxicity, organism-based, Sprague-Dawley
# Set-up: regimen Single, gender Male, age 6 weeks
# Assay Context: in vivo, po, 0 mg/kg, 24 h, tissue Kidney, route gavage, dose level Control

- Compound: "Nc1ccc(Cc2ccc(N)cc2)cc1"
  KIDNEY_TOTAL: "1.9 g"
- Compound: "CCCCNC(=O)NS(=O)(=O)c1ccc(C)cc1 [TOLBUTAMIDE]"
  KIDNEY_TOTAL: "2 g"
- Compound: "O=C(O)c1ccccc1Nc1ccccc1 [FENAMIC ACID]"
  KIDNEY_TOTAL: "1.9 g"
- Compound: "COc1ccc([C@@H]2Sc3ccccc3N(CCN(C)C)C(=O)[C@@H]2OC(C)=O)cc1 [DILTIAZEM]"
  KIDNEY_TOTAL: "1.8 g"
- Compound: "CN(C)CCCN1c2ccccc2Sc2ccc(Cl)cc21 [CHLORPROMAZINE]"
  KIDNEY_TOTAL: "2 g"
- Compound: "C=C[C@H]1C[N@@]2CC[C@H]1C[C@@H]2[C@@H](O)c1ccnc2ccc(OC)cc12 [QUINIDINE]"
  KIDNEY_TOTAL: "2 g"
- Compound: "CN(C/C=C/C#CC(C)(C)C)Cc1cccc2ccccc12 [TERBINAFINE]"
  KIDNEY_TOTAL: "2 g"
- Compound: "CC(S)C(=O)NCC(=O)O (centres undefined) [TIOPRONIN]"
  KIDNEY_TOTAL: "2 g"
- Compound: "CCO [ALCOHOL]"
  KIDNEY_TOTAL: "2 g"

----------
# Organism: Rattus norvegicus
# Assay Procedure: Open TG-GATES - Regimen: Daily Repeat
# Type: toxicity, organism-based, Sprague-Dawley
# Set-up: regimen Daily Repeat, gender Male, age 6 weeks
# Assay Context: in vivo, po, 100 mg/kg, 72 h, tissue Plasma, route gavage, dose level Low, time 3 day
// AST lookup, one value per entry

- Molecule: "O=C(O)c1ccccc1Nc1ccccc1 [FENAMIC ACID]"
  Unit Abbrev: "IU/L"
  AST: 64.2
- Molecule: "CC(=O)[C@@]1(O)CC[C@H]2[C@@H]3C=C(Cl)C4=CC(=O)CC[C@]4(C)[C@H]3CC[C@@]21C [CHLORMADINONE]"
  Unit Abbrev: "IU/L"
  AST: 72.8
- Molecule: "CCCCNC(=O)NS(=O)(=O)c1ccc(C)cc1 [TOLBUTAMIDE]"
  Unit Abbrev: "IU/L"
  AST: 73.8
- Molecule: "CC(S)C(=O)NCC(=O)O (centres undefined) [TIOPRONIN]"
  Unit Abbrev: "IU/L"
  AST: 73.6

----------
# Organism: Rattus norvegicus
# Assay Procedure: Open TG-GATES - Regimen: Daily Repeat
# Type: toxicity, organism-based, Sprague-Dawley
# Set-up: regimen Daily Repeat, gender Male, age 6 weeks
# Assay Context: in vivo, po, 0 mg/kg, […], tissue Plasma, route gavage, dose level Control, time 28 day
// Ca lookup, one value per entry
Experimental Endpoint: Ca

- Compound: "CC(S)C(=O)NCC(=O)O (stereo unspecified) [TIOPRONIN]"
  Experimental Result: "10.8 mg/dL"
- Compound: "CC(=O)[C@@]1(O)CC[C@H]2[C@@H]3C=C(Cl)C4=CC(=O)CC[C@]4(C)[C@H]3CC[C@@]21C [CHLORMADINONE]"
  Experimental Result: "10.6 mg/dL"
- Compound: "CCO [ALCOHOL]"
  Experimental Result: "10.5 mg/dL"
- Compound: "O=c1ccc2ccccc2o1 [COUMARIN]"
  Experimental Result: "10.7 mg/dL"
- Compound: "CN(CCOc1ccc(CC2SC(=O)NC2=O)cc1)c1ccccn1.O=C(O)/C=C\\C(=O)O (stereo unspecified) [ROSIGLITAZONE MALEATE]"
  Experimental Result: "10.7 mg/dL"
- Compound: "CCCCC1C(=O)N(c2ccccc2)N(c2ccccc2)C1=O [PHENYLBUTAZONE]"
  Experimental Result: "10.1 mg/dL"
- Compound: "COc1ccc([C@@H]2Sc3ccccc3N(CCN(C)C)C(=O)[C@@H]2OC(C)=O)cc1 [DILTIAZEM]"
  Experimental Result: "11.1 mg/dL"
- Compound: "CN(C/C=C/C#CC(C)(C)C)Cc1cccc2ccccc12 [TERBINAFINE]"
  Experimental Result: "10.5 mg/dL"
- Compound: "Nc1ccc(Cc2ccc(N)cc2)cc1"
  Experimental Result: "10.9 mg/dL"
- Compound: "CCCCNC(=O)NS(=O)(=O)c1ccc(C)cc1 [TOLBUTAMIDE]"
  Experimental Result: "10.8 mg/dL"
- Compound: "O=C(O)c1ccccc1Nc1ccccc1 [FENAMIC ACID]"
  Experimental Result: "11.1 mg/dL"
